Measured Kd by item
# studySystem: T1, Human VSIG4-S-His (human, UniProt Q9Y279 20-283)
# T1 construct: short isoform ECD with His tag; also called hVSIG4-S; VISG4-S-His
# T1 sequence: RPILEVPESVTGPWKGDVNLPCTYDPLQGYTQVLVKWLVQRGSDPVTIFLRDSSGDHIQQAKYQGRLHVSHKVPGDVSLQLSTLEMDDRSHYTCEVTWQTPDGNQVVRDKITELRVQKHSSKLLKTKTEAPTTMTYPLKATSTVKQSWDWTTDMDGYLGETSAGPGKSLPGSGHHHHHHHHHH
# measurementProtocol: BLI (Octet), IgG on AHC sensor, antigen 100 nM
measureName: Kd (nM)

binder="14D12 mouse/human chimeric IgG4 (S228P) kappa (antibody, V domains shown) VH: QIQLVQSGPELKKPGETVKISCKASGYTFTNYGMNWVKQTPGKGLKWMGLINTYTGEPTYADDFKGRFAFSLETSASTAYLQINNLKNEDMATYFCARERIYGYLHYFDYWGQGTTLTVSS VL: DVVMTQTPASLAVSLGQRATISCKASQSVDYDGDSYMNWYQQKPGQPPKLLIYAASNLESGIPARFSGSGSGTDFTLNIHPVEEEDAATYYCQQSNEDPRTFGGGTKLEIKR" measurename=Kd obsvalue=28.7
binder="16E10 mouse/human chimeric IgG4 (S228P) kappa (antibody, V domains shown) VH: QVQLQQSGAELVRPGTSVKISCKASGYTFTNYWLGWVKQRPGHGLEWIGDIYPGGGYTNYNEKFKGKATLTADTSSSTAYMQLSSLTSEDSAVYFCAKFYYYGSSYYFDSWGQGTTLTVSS VL: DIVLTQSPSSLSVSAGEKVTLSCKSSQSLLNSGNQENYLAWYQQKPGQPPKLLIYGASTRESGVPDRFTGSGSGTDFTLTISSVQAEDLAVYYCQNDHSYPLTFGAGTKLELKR" measurename=Kd obsvalue=75.3
binder="14C05 mouse/human chimeric IgG4 (S228P) kappa (antibody, V domains shown) VH: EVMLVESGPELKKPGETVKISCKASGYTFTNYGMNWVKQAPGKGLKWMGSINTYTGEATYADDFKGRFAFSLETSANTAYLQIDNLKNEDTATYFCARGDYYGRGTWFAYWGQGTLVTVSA VL: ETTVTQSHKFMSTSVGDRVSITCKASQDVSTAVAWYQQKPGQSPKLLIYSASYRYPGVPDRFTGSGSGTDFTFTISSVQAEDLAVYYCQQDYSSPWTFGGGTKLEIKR" measurename=Kd obsvalue=2.69
